Molecular target: NADH-ubiquinone oxidoreductase chain 1 (Bos taurus, UniProt P03887)
Sequence (P03887 whole entry): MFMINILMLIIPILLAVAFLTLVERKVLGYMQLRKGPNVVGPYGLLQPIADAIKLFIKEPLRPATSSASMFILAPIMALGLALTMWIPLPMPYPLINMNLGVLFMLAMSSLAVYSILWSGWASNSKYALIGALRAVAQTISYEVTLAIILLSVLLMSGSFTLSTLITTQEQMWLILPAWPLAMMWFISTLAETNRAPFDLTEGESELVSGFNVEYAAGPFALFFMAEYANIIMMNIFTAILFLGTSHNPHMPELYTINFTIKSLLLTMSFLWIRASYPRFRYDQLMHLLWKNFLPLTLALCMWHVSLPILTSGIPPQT
Test: Inhibition of Bos taurus (beef) heart NAD1 assessed as NADH oxidase activity
Settings: read-out: IC50
metric: pIC50
Would you please state pIC50, meaning minus log10 of the concentration in mol/L, as a bare number?

Prompt line: I'd like to know its pIC50. The compound in question is CC(C(=O)C(C)c1cccc(Oc2ccccc2)c1)C(=O)N1C=CCC1 (single isomer, unassigned; diastereomer 2)
Response line: 5.36

Prompt line: What do you have for CC(C(=O)c1ccccc1)C(=O)c1ccc[nH]1 (configuration not stated) ?
Response line: 3.67

Prompt line: What do you have for CCCCCCCC1=C(C)C(=O)N2CC/C(=N\O)C2O1 (configuration not stated) ?
Response line: 6.57

Prompt line: What do you have for CC(C(=O)C(C)c1cccc(Oc2ccccc2)c1)C(=O)N1CC[C@H](O)C1 (single isomer, unassigned; diastereomer 2) ?
Response line: 4.44

Prompt line: What do you have for CC1=C(C(C)c2cccc(Oc3ccccc3)c2)OC2C(O)CCN2C1=O (single isomer, unassigned; diastereomer 2) ?
Response line: 5.50

Prompt line: What do you have for CC1=C(C(C)c2cccc(Oc3ccccc3)c2)OC2C(O)CCN2C1=O (single isomer, unassigned; diastereomer 1) ?
Response line: 5.26

Prompt line: What do you have for CC1=C(C(C)c2cccc(Oc3ccccc3)c2)OC2/C(=N/O)CCN2C1=O (configuration not stated) ?
Response line: 6.04
